Data origin: patent US20210395713A1

- Target Under Test: T1, purified recombinant MHC II protein, allele DRB1*0701 (human)
- T1 construct: bought from Benaroya Research Institute; also called MHC-II DR molecule
- Experiment Notes: MHC II competition binding assay
Assay Endpoint: pIC50
Answers are plain numbers, as −log10 of the molar value.

// pIC50 lookup, binder = HLHFQRMVNSFGNPTAQ (synthetic mutated peptide of the lysostaphin catalytic domain; also called S124G) [cluster 5 peptide with Ser124Gly] , result: 3.82
